# Assay name: Oral bioavailability in rhesus monkey at 5 mg/kg
# Run conditions: in vivo
# Lookup of reported bioavailability keyed by entry
Respond with the bare value in %.

The recorded bioavailability for entry `N#Cc1cc(Cl)cc(Oc2cc(OCc3n[nH]c4nc(N)ccc34)cc(F)c2Cl)c1` equals 13

New cases:
Looking up `N#Cc1cc(Cl)cc(Oc2cc(OCc3n[nH]c4nc(N)ccc34)ccc2Cl)c1` , I found its bioavailability recorded as 1

---

# Assay name: Clearance in rhesus monkey at 1 mg/kg, iv
# Format: ADME, organism-based, Macaca mulatta
# Parameters: dose 1 mg/kg, route intravenous
# Run conditions: in vivo
Measured metric: clearance (mL/min/kg)
Field: numeric (mL/min/kg). Do not append units.

Value of clearance reported for the compound `N#Cc1cc(Cl)cc(Oc2cc(OCc3n[nH]c4nc(N)ccc34)cc(F)c2Cl)c1` is 15

Continuing:
For `N#Cc1cc(Cl)cc(Oc2cc(OCc3n[nH]c4nc(N)ccc34)ccc2Cl)c1` the compound record lists clearance as 16
